// data source = PubChem BioAssay (NCI)

# Tested on: NCI-H322M lung
# Procedure Summary: NCI-60 one-dose screen, 48 h (100 = growth as untreated, 0 = no growth, -100 = all killed)
# Particulars: 10 µM unless noted
Compounds without any hit were thinned out: in the full panel of roughly 83,000, 20% have a hit.
Threshold rule: growth greater than or equal to 90% is 1; below that, -1.

INSERT INTO measurements (compound, discrete_label) VALUES
  ('CCCCCN1C=C/C(=C\C(=O)N(C)c2ccccc2Br)c2ccccc21', 1),
  ('CC(=O)CCC(=O)OCc1cc(=O)c(O)co1', 1),
  ('ClC1=C(Br)C(Br)(Br)C(=C(Br)Br)C1(Br)Br', 1),
  ('COc1ccc(-c2nc([C@@H](C)Sc3nc(N)cc(N)n3)c(C)s2)cc1OCCN1CCOCC1', 1),
  ('Nc1n[nH]c2cccc(C#Cc3cccc(C(=O)Nc4cc(CN5CCOCC5)cc(C(F)(F)F)c4)c3)c12', -1);

Q. Is reported growth greater than or equal to 90% here: N#C/C(=C\c1ccc([N+](=O)[O-])s1)c1nc2cc(Cl)ccc2s1
A. 1

Q. Here is the next compound: COc1ccc(C/C(=C(\C)c2ccc(OCCN3CCCC3)cc2)c2ccc(OCCN3CCCC3)cc2)cc1
A. -1

Q. Here is the next compound: Cc1ccc(/C=C(/C#N)n2nnc3cccc(F)c32)cc1
A. -1

Q. Here is the next compound: N#CC1=C(/N=C/c2ccccc2)Oc2c(ccc3ccccc23)C1c1ccc([N+](=O)[O-])cc1 (stereo not given)
A. 1

Q. Here is the next compound: O=C(/C=C(/C=C/c1coc2ccccc12)OB(F)F)/C=C/c1coc2ccccc12
A. 1

---

# Tested on: SK-MEL-28 melanoma
# Procedure Summary: NCI-60 one-dose screen, 48 h (100 = growth as untreated, 0 = no growth, -100 = all killed)
# Particulars: 10 µM unless noted
About 83,000 compounds went through this panel and 20% of them were active in at least one assay; those are over-represented in the sample as a whole.
Property Name: growth (%)
Report the value in % with no unit label.

Examples from the recorded data:
INSERT INTO measurements (molecule, value_units, recorded_result) VALUES
  ('O=C(Nc1ccccc1)Nc1ccc2cc3ccc(NC(=O)Nc4ccccc4)cc3nc2c1', '%', -13.4),
  ('CCCCCN1C=C/C(=C\C(=O)N2CCCc3ccccc32)c2ccccc21', '%', 104),
  ('CCOC(=O)c1cc(C(=O)c2cc(OC)cc(OC)c2)n2ccc3ccccc3c12', '%', 107),
  ('COc1cc2nc(-c3ccc(Cl)cc3)cc(OCCCN3CCOCC3)c2cc1OC', '%', 60.1),
  ('C=C(C)[C@@H]1CC[C@]2(CN)CC[C@]3(C)[C@H](CC[C@@H]4[C@@]5(C)CCCNC(C)(C)[C@@H]5CC[C@]43C)[C@@H]12', '%', -28.3),
  ('COc1cc(C(=O)Nc2cc3c(cc2Oc2cc(C)cc(C)c2)C(=O)N(C)[C@@H](CC(=O)N(C)O)C(=O)N3)c(Br)c(OC)c1OC', '%', -49.1);

Q. Request the reported growth associated with CN1CCN(C(=O)[C@]23CCC(C)(C)C[C@H]2C2=CC[C@@H]4[C@@]5(C)C/C(=C/c6ccncc6)C(=O)C(C)(C)[C@@H]5CC[C@@]4(C)[C@]2(C)CC3)CC1
A. 74.7

Q. Here is the next molecule: CCCOC(=O)N[C@H]1CCc2cc(OC)c(OC)c(OC)c2-c2ccc(SC)c(=O)cc21
A. 58.7

Q. Here is the next molecule: O=C1Nc2cc(-c3ccc(NC(=O)C4CC4)cc3)ccc2/C1=C/c1ccc[nH]1
A. 119

Q. Here is the next molecule: O=C1NN(C(=O)c2ccccc2)C(c2ccc(Cl)c(Cl)c2)=C/C1=C\c1ccc([N+](=O)[O-])cc1
A. 111

Q. Here is the next molecule: N/C(=N\C(N)=N\c1nc2ccccc2s1)c1cccc(Cl)c1
A. 104
